Reported Ki values are given for each entry in this list.
# system_under_test: muscarinic M1 receptors (Rattus norvegicus, UniProt P08482)
# Sequence (P08482 1-460): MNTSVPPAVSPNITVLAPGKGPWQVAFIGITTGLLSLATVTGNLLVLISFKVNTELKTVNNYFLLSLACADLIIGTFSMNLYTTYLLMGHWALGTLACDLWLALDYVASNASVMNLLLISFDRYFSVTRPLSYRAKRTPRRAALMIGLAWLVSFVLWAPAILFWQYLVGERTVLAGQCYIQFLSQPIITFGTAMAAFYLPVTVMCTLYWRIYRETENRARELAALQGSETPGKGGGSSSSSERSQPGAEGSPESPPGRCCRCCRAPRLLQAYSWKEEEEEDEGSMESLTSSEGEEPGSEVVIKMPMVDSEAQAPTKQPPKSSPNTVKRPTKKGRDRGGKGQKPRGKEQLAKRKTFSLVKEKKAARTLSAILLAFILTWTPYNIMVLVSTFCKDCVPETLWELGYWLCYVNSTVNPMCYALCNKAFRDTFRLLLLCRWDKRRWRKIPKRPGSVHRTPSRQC
Numeric answer plus unit only.

>>> result("CC(C)=CCCN1CCC(NC(=O)C(O)(c2ccccc2)C2CCCC2)CC1 (centres unmarked)")
"13 nM"
>>> result("CC(C)=CCCN1CCC(NC(=O)C(O)(c2ccccc2)C2CCC2)CC1 (centres unmarked)")
"45 nM"
>>> result("CC[C@H](C)CCCN1CCC(NC(=O)[C@](O)(c2ccccc2)C2CCC2)CC1.Cl [Example 22, hydrochloride]")
"120 nM"
>>> result("CC[C@H](C)CCCN1CCC(NC(=O)[C@](O)(c2ccccc2)C2CCCC2)CC1.Cl [Example 29, hydrochloride]")
"40 nM"

In: Fill in: Ki of CC(C)=CCCN1CCC(NC(=O)[C@](O)(c2ccccc2)C2CCCC2)CC1.O=C(O)/C=C/C(=O)O [Example 28, fumarate] is ___
Out: 6 nM

---

Reported M1/M3 values are given for each entry in this list.
# system_under_test: muscarinic M3 receptor (Rattus norvegicus, UniProt P08483)
# Sequence (P08483 whole entry): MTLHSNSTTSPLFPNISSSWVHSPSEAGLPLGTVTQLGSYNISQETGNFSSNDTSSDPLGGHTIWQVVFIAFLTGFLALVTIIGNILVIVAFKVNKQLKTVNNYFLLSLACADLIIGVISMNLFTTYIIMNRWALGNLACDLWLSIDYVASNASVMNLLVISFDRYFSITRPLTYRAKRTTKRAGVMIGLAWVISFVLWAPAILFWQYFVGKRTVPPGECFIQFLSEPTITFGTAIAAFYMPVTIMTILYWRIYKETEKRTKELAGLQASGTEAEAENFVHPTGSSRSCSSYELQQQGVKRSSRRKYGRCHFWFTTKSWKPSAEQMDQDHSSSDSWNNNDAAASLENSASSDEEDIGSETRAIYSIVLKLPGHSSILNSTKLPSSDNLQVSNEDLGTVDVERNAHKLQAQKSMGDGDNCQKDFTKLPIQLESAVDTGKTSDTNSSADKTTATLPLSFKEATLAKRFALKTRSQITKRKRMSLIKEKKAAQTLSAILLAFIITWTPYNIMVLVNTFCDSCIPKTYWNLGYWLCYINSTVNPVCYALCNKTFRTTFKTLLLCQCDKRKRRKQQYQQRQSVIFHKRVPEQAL
# assay_notes: Inhibition of binding to muscarinic M3 receptors ([3H]-N-methylscopolamine, lacrimal gland membrane)
# Set-up: a membrane specimen from the lacrimal glands was used as the membrane specimen; from tissue; host or cells: rat lacrimal gland membranes (SD rat)
# test_context: ratio of binding Ki, M1 over M3

Below, 4 compounds whose answers are already recorded.
>>> result("CC[C@H](C)CCCN1CCC(NC(=O)[C@](O)(c2ccccc2)C2CCCC2)CC1.Cl [Example 29]")
10
>>> result("CC(C)=CCCN1CCC(NC(=O)[C@](O)(c2ccccc2)C2CCCC2)CC1.O=C(O)/C=C/C(=O)O [Example 28]")
3.0
>>> result("CC(C)=CCCN1CCC(NC(=O)C(O)(c2ccccc2)C2CCC2)CC1 (centres unmarked) [Example 1]")
5.0
>>> result("CC(C)=CCCN1CCC(NC(=O)C(O)(c2ccccc2)C2CCCC2)CC1 (centres unmarked) [Example 16]")
4.2

Below: the item to evaluate.
In: Fill in: M1/M3 of CC[C@H](C)CCCN1CCC(NC(=O)[C@](O)(c2ccccc2)C2CCC2)CC1.Cl [Example 22] is ___
Out: 13.0

Every entry's value here was drawn from patent US5750540A.
